# assayed.system: the molecule itself
# protocol.summary: cell-based or functional assay
measured.endpoint: Strain crossover (G'' > G'), 25 C
Give the value; after it, write the unit.

(Q) Give a short answer stating reported Strain crossover (G'' > G'), 25 C for PXP (SEQ ID NO: 81) (designed binder) MRGSHHHHHHGSGRGDSVDGSGSGSGSGSGSGAPQMLRELQETNAALQDVRELLRQQVKEITFLKNTVMESDASGSGSGSGSGSGSLDGSPAGSPTSTEEGTSESATPESGPGTSTEPSEGSAPGSPAGSPTSTEEGTSTEPSEGSAPGTSTEPSEGSAPGTSESATPESGPGSEPATSGSETPGSEPATSGSETPGSPAGSPTSTEEGTSESATPESGPGTSTEPSEGSAPLDGSGSGSGSGSGSGAPQMLRELQETNAALQDVRELLRQQVKEITFLKNTVMESDASGSGSGSGSGSGSLEGRGDSHHHHHHKLN .
(A) 161 % strain
